Cited source for all entries: PubChem BioAssay AID789

experiment: growth inhibition of apl2Δ yeast, dose response, selectivity assay for post-Golgi transport modulator project, S. cerevisiae, secondary screen, background strain comparison (AID 789); conditions: S. cerevisiae apl2Δ mutant growth inhibition; at 25 µM (top of the series)
Mark 1 for reported growth inhibition of 30% or greater; mark -1 for anything smaller.

QUERY: Tell me whether growth inhibition is at least 30% here: O=C(Nc1nnc(-c2ccccc2)o1)c1ccc(Cl)cc1
RESULT: 1

QUERY: Test whether the compound O=C(N/N=C/c1ccc([N+](=O)[O-])o1)c1cc(-c2cccc(Br)c2)nc2ccccc12 records growth inhibition of 30% or higher.
RESULT: 1

QUERY: Check this compound for growth inhibition at or above 30%: C=CCc1ccc(OCCCCN2CC(C)OC(C)C2)c(OC)c1 (stereo not given)
RESULT: 1

--- query ---
QUERY: Decide: is the reported value of growth inhibition for CCOC(=O)c1ccc(NC(=O)c2cn(-c3ccccc3)nc2-c2ccncc2)cc1 equal to or greater than 30%?
RESULT: -1
